# Target Or System: ATP-dependent 6-phosphofructokinase (Trypanosoma brucei brucei)
# Assay Protocol: qHTS Assay to Find Inhibitors of T. brucei phosphofructokinase; also: nearly all actives have a fitted effect of over 60% in size
# Measurement Parameters: T. brucei PFK, ADP-Glo luminescence; series mostly up to 57.5 µM
In all, about 330,000 compounds went through this assay and about 560 (0.17%) were called active. About 1% were inconclusive and are not listed. Calls follow the shape of the dose curve; as a rule, active = well fitted inhibition curve with a large enough effect; inconclusive = small, poorly fitted or top-dose-only effect, or effect the other way; inactive = flat fitted curve, though single readings scatter. Many of the other results were omitted from the sample, so actives are more common in it than they were.
A correct response names exactly one class from active, inactive

COCCN1C(=O)N(c2ccc(Cl)cc2)C(=O)C1CC(=O)Nc1cc(OC)cc(OC)c1 (configuration not stated) = inactive
CC(NC(=O)CCCC1CCCCC1)c1ccc(S(N)(=O)=O)cc1 (configuration not stated) = inactive
Cc1cc([N+](=O)[O-])nn1Cc1ccc(F)cc1 = inactive
O=c1ccc2c(-c3ccccc3S(=O)(=O)O)c3ccc(O)c(O)c3oc-2c1O = active
COC(=O)c1ccc(COc2ccc(/C=C/C(=O)c3ccc(OC)c(CSCC(=O)O)c3)cc2OC)cc1 = active

Prompt: Which outcome did this test record for the molecule `Cc1nn(Cc2ccc(Cl)c(Cl)c2)c(C)c1NC(=O)c1cc(C2CC2)on1` ?
Response: active

Prompt: Which outcome did this test record for the molecule `COC(=O)COc1ccc2c(c1C)O/C(=C\c1ccco1)C2=O` ?
Response: inactive

Prompt: Which outcome did this test record for the molecule COc1ccc(CNC(=O)C(NS(=O)(=O)c2cccc3nsnc23)C(C)C)cc1 (configuration not stated) ?
Response: inactive

Prompt: Which outcome did this test record for the molecule `Cc1cc(C(=O)Nc2c(C)nn(Cc3ccccc3)c2C)on1` ?
Response: inactive

====

# Target Or System: ATP-dependent 6-phosphofructokinase (Trypanosoma brucei brucei)
# Assay Protocol: qHTS Assay to Find Inhibitors of T. brucei phosphofructokinase; also: nearly all actives have a fitted effect of over 60% in size
# Measurement Parameters: T. brucei PFK, ADP-Glo luminescence; series mostly up to 57.5 µM
# From the text: NIH Molecular Libraries Probe Production Network [MLPCN] NIH Chemical Genomics Center [NCGC] Grant: 1 R03 MH092153-01 PI Name: Malcolm Walkinshaw, University of Edinburgh NCGC Assay Overview: Various species of the protozoan family Trypanosomatidae are responsible for a range of serious human diseases in tropical and subtropical areas of the world. […] A luminescence-based assay for T. brucei PFK activity has been developed which uses luciferase to detect production of ADP. […]
Hit rate of the full screen: of about 330,000 compounds, about 560 (0.17%) were called active. Another 1% or so got no clear call; they are omitted. Calls follow the shape of the dose curve; as a rule, active = well fitted inhibition curve with a large enough effect; inconclusive = small, poorly fitted or top-dose-only effect, or effect the other way; inactive = flat fitted curve, though single readings scatter. Many of the other results were omitted from the sample, so actives are more common in it than they were.
A correct response names exactly one class from active, inactive

Prompt: Which outcome did this test record for the compound `Cc1c(C)c(C)c2[nH]c(=S)[nH]c2c1C` ?
Response: inactive

====

# Target Or System: ATP-dependent 6-phosphofructokinase (Trypanosoma brucei brucei) (UniProt O15648)
# Sequence (O15648 whole entry, looked up): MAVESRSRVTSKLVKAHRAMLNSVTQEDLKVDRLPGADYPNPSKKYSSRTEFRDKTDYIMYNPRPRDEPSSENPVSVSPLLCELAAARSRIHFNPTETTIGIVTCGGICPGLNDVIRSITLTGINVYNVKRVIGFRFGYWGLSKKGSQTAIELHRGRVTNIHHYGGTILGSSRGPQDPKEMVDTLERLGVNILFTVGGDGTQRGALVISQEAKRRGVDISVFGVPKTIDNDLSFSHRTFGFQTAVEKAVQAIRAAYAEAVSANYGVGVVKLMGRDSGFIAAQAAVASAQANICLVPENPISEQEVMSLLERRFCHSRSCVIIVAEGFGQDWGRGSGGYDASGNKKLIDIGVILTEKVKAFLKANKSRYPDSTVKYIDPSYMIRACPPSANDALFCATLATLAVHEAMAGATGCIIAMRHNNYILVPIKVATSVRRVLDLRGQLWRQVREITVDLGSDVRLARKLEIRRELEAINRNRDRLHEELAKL
# Assay Protocol: qHTS Assay to Find Inhibitors of T. brucei phosphofructokinase; also: nearly all actives have a fitted effect of over 60% in size
# Measurement Parameters: T. brucei PFK, ADP-Glo luminescence; series mostly up to 57.5 µM
In all, about 330,000 compounds went through this assay and about 560 (0.17%) were called active. About 1% were inconclusive and are not listed. Calls come from the whole dose curve; as a rule, active = well fitted inhibition curve with a large enough effect; inconclusive = small, poorly fitted or top-dose-only effect, or effect the other way; inactive = flat fitted curve, though single readings scatter. The full list was thinned out, with actives kept by preference.
A correct response names exactly one class from yes = active, no = inactive

Cn1c(=O)c([N+](=O)[O-])c(Oc2ccccc2)c2ccccc21 = no
Nc1cc(N)nc(SCc2ccc(Cl)cc2)n1 = no
CN1CCN(c2ccc(S(=O)(=O)N3CCOCC3)cc2NC(=O)CCc2ccccc2)CC1 = no
O=C(NC1CCN(Cc2ccccc2)CC1)c1cc(Br)c(Br)[nH]1 = no

Prompt: Which outcome did this test record for the molecule `O=C(COC(=O)c1cccc(Cl)c1)Nc1ccc2[nH]c(=O)[nH]c2c1` ?
Response: no

Prompt: Which outcome did this test record for the molecule Cc1nn(C(C)CC(=O)O)c(C)c1C (stereo not given) ?
Response: no

Prompt: Which outcome did this test record for the molecule `CC(C)(C)NC(=O)NC(=O)COC(=O)Cc1c(F)cccc1Cl` ?
Response: no

Prompt: Which outcome did this test record for the molecule `Cc1nc2ccccc2c(=O)n1NC(=O)c1ccccc1` ?
Response: no

Prompt: Which outcome did this test record for the molecule `COc1ccc(CCNC(=O)c2cnc(Cl)c(Cl)c2)cc1` ?
Response: no

Prompt: Which outcome did this test record for the molecule `O=C(COc1ccc([N+](=O)[O-])cc1Cl)Nc1ccc2[nH]c(=O)[nH]c2c1` ?
Response: no

Prompt: Which outcome did this test record for the molecule `CCN(CC)CCCSc1nc2ccccc2s1` ?
Response: no

Data origin, for the record: PubChem BioAssay AID485367
